# Type: in vivo, human
# measurementParameters: human, plasma, po, 30 mg, Tmax, median (range), single oral 30 mg, fasted; normal hepatic function (n = 13)
quantityKind: Tmax (h)
Give the quantity in h, number only.

// lookup Tmax for Nc1cc(C(F)(F)F)c(-c2cc(N3CCOCC3)nc(N3CCOCC3)n2)cn1 1

----------
# Format: in vivo, human
# measurementParameters: human, plasma, po, 30 mg, AUC∞, geometric mean (CV%), single oral 30 mg, fasted; normal hepatic function (n = 13)
quantityKind: AUC(0-inf)
Give the number first and the unit second.

Look at this molecule and give its reported AUC(0-inf). Nc1cc(C(F)(F)F)c(-c2cc(N3CCOCC3)nc(N3CCOCC3)n2)cn1 6010 ng·h/mL
